test: NCI Yeast Anticancer Drug Screen. Data for the mlh1 rad18 strain (AID 175); details: S. cerevisiae mlh1 rad18 strain growth inhibition; at 5.0 µM (retest, dose inferred, filed as 0.5); active compounds read high
The panel holds about 79,000 compounds, 15% with a hit somewhere; the sample as a whole holds those more often.
MEASURE_NAME: growth inhibition (%)
Give just the number in %; leave the unit off.

growth inhibition in this record for `CC#C[P+](c1ccccc1)(c1ccccc1)c1ccccc1` : 95

growth inhibition in this record for `N#Cc1ccc([Se]c2ccccc2)cc1` : 89

growth inhibition in this record for `Oc1ccc(Cl)cc1Cc1ccccc1` : 29

growth inhibition in this record for `COc1ccc(CNCCc2ccc(O)c(OC)c2)cc1O` : -1

growth inhibition in this record for `CCCCCCCCCCCC[As](=O)(O)O` : 6

growth inhibition in this record for COC(COC(=O)N1CCN(C=O)CC1)C1=C(N2CC2)C(=O)C(C)=C(N2CC2)C1=O (stereo unspecified) : 23

growth inhibition in this record for COC([CH2][Hg][n]1cnc2c1c(=O)n(C)c(=O)n2C)CN1C(=O)c2ccccc2S1(=O)=O (stereo unspecified) : -1

growth inhibition in this record for CCC1(O)C(=O)OCc2c1cc1n(c2=O)Cc2cc3ccccc3nc2-1 (stereo unspecified) : 36

growth inhibition in this record for `COc1ccc(OC)c(C=O)c1` : -1

growth inhibition in this record for `Cc1cc(N(C)C)c2ccccc2[n+]1CCCCCCCCCC[n+]1c(C)cc(N(C)C)c2ccccc21` : 97

growth inhibition in this record for O=C(c1ccccc1)C1C(c2ccccc2[N+](=O)[O-])N1C1CCCCC1 (stereo unspecified) : 0

growth inhibition in this record for O=c1ccn(C2OC(CO)C(O)C2O)c(=O)[n]1[Hg][c]1ccccc1 (stereo unspecified) : 98

growth inhibition in this record for O=[N+]([O-])C(Br)CO (stereo unspecified) : 4

growth inhibition in this record for O=C(O)C1(c2ccccc2)OC1c1ccccc1 (stereo unspecified) : -1

growth inhibition in this record for `CN(C)CCSC1=Nc2ccc(Cl)cc2C(c2ccccc2Cl)=NC1` : 4

growth inhibition in this record for CC(C)c1cccc(C(C)C)c1NC(=O)C(=O)CC(=O)CC(c1ccccc1)c1c(O)c2ccccc2oc1=O (stereo unspecified) : 7
